Below are pKi values measured for human 5-HT2A receptor (Homo sapiens (Human), UniProt P28223).
Remember, pKi is on a log scale: it is -log10 of the molar concentration.

1) O=C(CC1CCOCC1)N[C@H]1CC[C@H](CCN2CCC(c3coc4ccccc34)CC2)CC1 | 8.27
2) CS(=O)(=O)CC(=O)N[C@H]1CC[C@H](CCN2CCC(c3coc4ccccc34)CC2)CC1 | 8.45
3) O=C(N[C@H]1CC[C@H](CCN2CCC(c3coc4ccccc34)CC2)CC1)c1ccc(N2CCS(=O)(=O)CC2)cc1 | 8.00

Here is the next item to consider.
Query: For the compound shown here, O=C(CC(F)(F)F)N[C@H]1CC[C@H](CCN2CCC(c3coc4ccccc34)CC2)CC1 , give the reported pKi.
Result: 8.09
